Would you mind telling me the reported TGI of each entry?
- Test system: EKVX NSCLC
- assay.details: NCI tumour cell line growth inhibition, 48 h

A selection of reference data follows.
| molecule | readout.name | result |
| --- | --- | --- |
| CCOC(=O)c1cc(-c2ccccc2)[nH]c1N/N=C/c1ccc(Cl)cc1 | TGI | > 100 µM |
| O=C1NC(N2CCCCC2)=N/C1=C\c1ccc(Cl)cc1 | TGI | > 100 µM |

// each listed molecule needs a value for TGI
1. COc1ccc(NC(C)=O)c(C(O)CCNC(C)=O)c1 (stereo not given)
2. CC(=O)OC[C@@]12Cc3ccc(C)c(O)c3[C@]1(C)[C@@H](OC(C)=O)[C@]1(O)[C@H]([C@@H](OC(=O)c3ccccc3)[C@@H](C)[C@H]1OC(C)=O)[C@H]2OC(C)=O
3. CN1C(=O)C(O)CC1c1ccccc1C(F)(F)F (stereo not given)

["> 100 µM", "> 50 µM", "> 100 µM"]

---

Would you mind telling me the reported TGI of each entry?
- Tested on: TK-10 renal
- assay.details: NCI tumour cell line growth inhibition, 48 h

A selection of reference data follows.
| compound | TGI |
| --- | --- |
| O=C1/C(=C/c2ccc(Oc3ccccc3)cc2)N=C(c2ccccc2)N1c1ccc(S(=O)(=O)Nc2nccs2)cc1 | > 100 µM |
| CSc1snc2sc3c(Cl)nnnc3c12 | 30.9 µM |
| CCN(CC)C1C(=O)NC1C#Cc1ccccc1 (configuration not stated) | > 100 µM |
| CCOC(=O)c1cc(Br)c(-c2cc(C)no2)[nH]1 | > 100 µM |

// each listed compound needs a value for TGI
1. C/C=C1\CN2CCc3c([nH]c4ccccc34)C2C=C1CCO (configuration not stated)
2. CC(=O)n1cc(OP(=O)(Oc2ccccc2)Oc2ccccc2)c2ccccc21
3. CC1=C(O)/C(=C/C(C)CCC/C(C)=C/C=C/C(C)CCCc2ccoc2)OC1=O (configuration not stated)
4. CC1=C(/C=C/C(C)=C/C=C/C(C)=C/C(=O)O)C(C)(C)CCC1
5. CCOC(OCC)N1C(=O)C2(C(OCC)OCC)CC3C(OC(=O)N3N)c3cccc1c32 (configuration not stated)
6. O=C(N/N=C1\C(=O)N(c2nccs2)C(=O)C(=O)C1c1nc2ccccc2s1)c1ccccc1O (configuration not stated)
7. Oc1cc(N2CCCC2)ccc1/C=N/N1C(=S)N(c2ccccc2)C(=Nc2ccccc2)C1=Nc1ccccc1
8. N#CC(C#N)N=Nc1ccc(-c2nc3ccccc3o2)cc1

1: > 340 µM; 2: > 100 µM; 3: 78.6 µM; 4: > 100 µM; 5: > 100 µM; 6: > 100 µM; 7: > 100 µM; 8: 38.2 µM

---

- Tested on: OVCAR-5 ovarian
- assay.details: NCI tumour cell line growth inhibition, 48 h
readout.name: TGI

| molecule | readout.name | result |
| --- | --- | --- |
| C=C1C(=O)OC2C3C(=C)[C@@H](OC(C)=O)CC3C(C)=CC(OC(=O)C(C)(OC(C)=O)C(C)OC(C)=O)[C@@H]12 (stereo partly specified) | TGI | 42.6 µM |
| CCNC12CCC(C1)C(C)(C)C2=O (stereo unspecified) | TGI | > 100 µM |

// each listed molecule needs a value for TGI
1. O=C1c2ccccc2C(=O)C1C(c1ccc(F)cc1)C1C(=O)c2ccccc2C1=O
2. Nc1n[n+](-c2ccccc2)no1
3. CC(C)=CCC/C(C)=C\CCC1(C)OC(=O)C2CC21 (stereo unspecified)
4. CC(=O)O[C@H]1[C@@H]2OC(=O)C(CSc3ccccc3)[C@@H]2C[C@H]2O[C@]2(C)CC/C=C(\C)CCC[C@@H]1C (stereo partly specified)

1: > 100 µM; 2: > 100 µM; 3: > 100 µM; 4: 33.7 µM

---

Would you mind telling me the reported TGI of each entry?
- Test system: NCI/ADR-RES ovarian
- assay.details: NCI tumour cell line growth inhibition, 48 h
Where a SMILES comes first, the peptide text is derived from it. [ ]: non-standard residue; d: D form. ξ: configuration not given here. ξLac(3-iPr) = CC(C)CC(O)C(=O)O; NMeV = CN[CH](C(=O)O)C(C)C; NMeA = CN[CH](C)C(=O)O; βAla = NCCC(=O)O

| molecule | experimental.system | result |
| --- | --- | --- |
| CCCCCCCCCCCCCCCCOP(=O)(O)OCC(NC(C)=O)C(=O)O (stereo not drawn) | NCI/ADR-RES ovarian | > 100 µM |
| CCOC(=O)c1cc(Br)c(-c2cc(C)no2)[nH]1 | NCI/ADR-RES ovarian | > 100 µM |
| CCCCCCCCCNC(=O)/C=C/c1ccc(O)c(O)c1 | NCI/ADR-RES ovarian | 46.8 µM |
| NC(=O)SCCC(N)C(=O)O (stereo not drawn) | NCI/ADR-RES ovarian | > 100 µM |
| CC1(c2ccc(Cl)s2)CC(c2ccc(Cl)s2)=C(C#N)C(=C(C#N)C#N)N1 (stereo not drawn) | NCI/ADR-RES ovarian | 38.8 µM |
| NS(=O)(=O)c1ccc(N(/C=C/C(=O)C(F)(F)F)Cc2ccc(Cl)cc2)cc1 | NCI/ADR-RES ovarian | 54.9 µM |
| C/C(=N\NC(=S)SCc1ccccc1)c1ccccn1 | NCI/ADR-RES ovarian | < 0.0332 µM |
| CCC(C)C1NC(=O)C2CCCN2C(=O)C(CC(C)C)OC(=O)CCNC(=O)C(C)N(C)C(=O)C(C(C)C)N(C)C1=O (stereo not drawn) (cyclo([ξLac(3-iPr)]PI[NMeV][NMeA][βAla]); configuration not given here) | NCI/ADR-RES ovarian | > 86.9 µM |

// each listed molecule needs a value for TGI
1. COc1cccc(Nc2nc(N)nc(N)c2N)c1
2. CC(=O)OC[C@@]12Cc3ccc(C)c(O)c3[C@]1(C)[C@@H](OC(C)=O)[C@]1(O)[C@H]([C@@H](OC(=O)c3ccccc3)[C@@H](C)[C@H]1OC(C)=O)[C@H]2OC(C)=O
3. COc1cc(-c2csc(NC(=O)Nc3ccc(C(F)(F)F)cc3)n2)cc(OC)c1OC
4. CC1=NN(c2nc(N)nc(C/C(N)=N/O)n2)C(C)(C)C1
5. COC(=O)c1cc2c3ccccc3[nH]c2c2sccc12

["> 100 µM", "> 50 µM", "6.94 µM", "> 100 µM", "> 100 µM"]

---

- System: SNB-75 CNS
- assay.details: NCI tumour cell line growth inhibition, 48 h; in the data active means GI50 below about 0.43 µM; inactive means the rest
Select the matching outcome among t for active, f for inactive

Sample answers from the record:
| compound | label.class |
| --- | --- |
| CC(=O)[CH-]C(=O)c1ccccc1.CC(=O)[CH-]C(=O)c1ccccc1.Cc1cc([O-])ccc1Cl.Cc1cc([O-])ccc1Cl.[Ti+4] | f |
| CN(C)CCNc1c2ccccc2nc2oc3ccccc3c12 | f |
| CC(=O)O[C@H]1[C@@H]2OC(=O)C(CSc3ccccc3)[C@@H]2C[C@H]2O[C@]2(C)CC/C=C(\C)CCC[C@@H]1C (stereo partly specified) | f |
| Oc1c(Cl)cc(Cl)cc1C(c1cc(Cl)cc(Cl)c1O)C(Cl)(Cl)Cl | f |
| CC(=O)O[C@H](C[C@H](C(C)C)N(C)C(=O)[C@@H](NC(=O)[C@H]1CCCN1C)C(C)C)c1nc(C(=O)N[C@@H](Cc2ccccc2)C[C@H](C)C(=O)O)c(C)s1 | t |

Now consider the entry below.
Per the assay record, what outcome was assigned to CCCCCCCCCNC(=O)/C=C/c1ccc(O)c(O)c1 ?
f

---

- Tested on: SF-268 CNS
- assay.details: NCI tumour cell line growth inhibition, 48 h
Would you mind telling me the reported TGI of each entry?

| compound | readout.name | result |
| --- | --- | --- |
| [N-]=[N+]=NCCCn1c2c(c3ccc([N+](=O)[O-])cc3c1=O)C(=O)c1cc(F)ccc1-2 | TGI | 4.32 µM |
| O=C(N/N=C1\C(=O)N(c2nccs2)C(=O)C(=O)C1c1nc2ccccc2s1)c1ccccc1O (stereo unspecified) | TGI | > 100 µM |
| Cc1cn2c(/C=N/N=C(N)N)c(-c3ccccn3)nc2s1 | TGI | 45.4 µM |

// each listed compound needs a value for TGI
1. CC(C)Oc1cccc(N2C(=NCCc3c[nH]c4ccccc34)Nc3ccncc3S2(=O)=O)c1
2. CC(C)(C)c1ccc(OCCOCCOc2ccc(C(C)(C)C)cc2S(=O)(=O)Nc2ccc([N+](=O)[O-])cc2)c(S(=O)(=O)Nc2ccc([N+](=O)[O-])cc2)c1
3. Oc1ccc(C2c3ccccc3Oc3ccccc32)c2cccnc12

["> 100 µM", "> 100 µM", "> 100 µM"]

src = PubChem BioAssay (NCI)
